measurementTarget: Free fatty acid receptor 4 (Homo sapiens) (UniProt Q5NUL3)
Sequence (Q5NUL3 whole entry): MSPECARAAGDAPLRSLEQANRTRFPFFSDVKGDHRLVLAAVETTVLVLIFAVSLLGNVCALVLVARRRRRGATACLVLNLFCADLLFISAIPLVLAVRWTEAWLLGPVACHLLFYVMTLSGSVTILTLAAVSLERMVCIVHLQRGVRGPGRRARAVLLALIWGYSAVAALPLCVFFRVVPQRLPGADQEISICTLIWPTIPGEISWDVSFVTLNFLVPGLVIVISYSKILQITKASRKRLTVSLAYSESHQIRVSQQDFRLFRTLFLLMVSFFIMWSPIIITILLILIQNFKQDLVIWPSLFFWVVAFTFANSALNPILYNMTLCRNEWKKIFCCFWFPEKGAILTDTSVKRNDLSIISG
runDescription: Agonist activity at human GPR120 expressed in CHO-FlpIn cells after 15 mins by DMR assay relative to control
Format: cell-based
measuredParameter: Efficacy (%)

| compound | Efficacy (%) |
| --- | --- |
| Cc1nn(-c2ccccn2)c2cc(-c3ccc(CCC(=O)O)cc3)ncc12 | 78 |
| COc1cc(CCC(=O)O)ccc1-c1ccc2c(C)nn(-c3ccccn3)c2c1 | 82 |
| Cc1nn(-c2ccccn2)c2cc(-c3ccc([C@@H]4C[C@H]4C(=O)O)cc3)ccc12 | 26 |
| O=C(O)CCc1ccc(-c2ccc3c(OCc4ccccc4)nn(-c4ccccn4)c3c2)cc1 | 2 |
| COc1nn(-c2ccccn2)c2cc(-c3ccc([C@H]4C[C@@H]4C(=O)O)cc3)cc(F)c12 | 93 |

A = Cc1nn(-c2ccccn2)c2cc(-c3ccc([C@H]4C[C@@H]4C(=O)O)cc3)ccc12 (racemic)
B = Cc1nn(-c2ccccn2)c2cc(-c3cccc(CCC(=O)O)c3)ccc12
Prompt line: Hi there! Just curious which has the higher Efficacy between A and B . Identify your pick by its label.
Response line: A
(A: 87%, B: 28%)

----------
measurementTarget: UniProt:Q7TMA4
Sequence (whole entry): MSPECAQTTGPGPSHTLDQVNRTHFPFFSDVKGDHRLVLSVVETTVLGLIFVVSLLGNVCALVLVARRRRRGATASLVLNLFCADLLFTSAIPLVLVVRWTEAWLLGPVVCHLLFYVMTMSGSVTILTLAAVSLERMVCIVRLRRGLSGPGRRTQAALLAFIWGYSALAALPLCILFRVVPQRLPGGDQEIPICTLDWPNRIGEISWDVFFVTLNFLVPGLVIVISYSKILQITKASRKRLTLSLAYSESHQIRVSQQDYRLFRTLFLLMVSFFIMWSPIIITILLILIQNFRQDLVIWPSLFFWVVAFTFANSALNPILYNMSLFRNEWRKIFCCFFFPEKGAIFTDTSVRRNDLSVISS
runDescription: Agonist activity at mouse GPR120 expressed in CHO-FlpIn cells after 15 mins by DMR assay relative to control
Assay type: cell-based
measuredParameter: Efficacy (%)

Before answering, review these 5 worked examples.
| querySmiles | measurementTarget | Efficacy, % |
| --- | --- | --- |
| Cc1ccc(-n2nc(C)c3ccc(-c4ccc([C@H]5C[C@@H]5C(=O)O)cc4)cc32)cc1 | UniProt:Q7TMA4 | 91 |
| Cc1ccc(-n2nc(C)c3c(F)cc(-c4ccc([C@H]5C[C@@H]5C(=O)O)cc4)cc32)cc1 | UniProt:Q7TMA4 | 112 |
| Cc1ccc(-n2nc(C)c3cnc(-c4ccc([C@H]5C[C@@H]5C(=O)O)cc4F)cc32)nc1 | UniProt:Q7TMA4 | 79 |
| COc1nn(-c2ccccn2)c2cc(-c3ccc([C@H]4C[C@@H]4C(=O)O)cc3)ccc12 | UniProt:Q7TMA4 | 99 |
| COc1nn(-c2ccccn2)c2cc(-c3ccc([C@H]4C[C@@H]4C(=O)O)cc3)cc(F)c12 | UniProt:Q7TMA4 | 103 |

P = Cc1ccc(-n2nc(C)c3cnc(-c4ccc([C@H]5C[C@@H]5C(=O)O)cc4)cc32)cc1
Q = COc1nn(-c2ccc(C)cc2)c2cc(-c3ccc([C@H]4C[C@@H]4C(=O)O)cc3)cc(F)c12
Prompt line: In terms of reported Efficacy, does P or Q have the smaller number? Identify your pick by its label.
Response line: P

----------
measurementTarget: Free fatty acid receptor 1 (Mus musculus, UniProt Q76JU9)
Sequence (Q76JU9 whole entry): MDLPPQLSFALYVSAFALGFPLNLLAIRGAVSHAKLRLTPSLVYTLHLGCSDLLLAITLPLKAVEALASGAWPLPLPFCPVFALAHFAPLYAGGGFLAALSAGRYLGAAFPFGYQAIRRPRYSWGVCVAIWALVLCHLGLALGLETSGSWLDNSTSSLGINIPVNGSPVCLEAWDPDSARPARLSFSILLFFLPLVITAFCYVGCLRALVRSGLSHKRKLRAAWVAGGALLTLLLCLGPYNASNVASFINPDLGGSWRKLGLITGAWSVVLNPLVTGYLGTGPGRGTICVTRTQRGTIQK
runDescription: Agonist activity at mouse GPR40 expressed in HEK293 cells assessed as increase in intracellular calcium level after 5 mins by FLUO-4-AM dye-based FLIPR assay
pEC50: −log10 of the molar value.
measuredParameter: pEC50

Before answering, review these 4 worked examples.
| compound | pEC50 |
| --- | --- |
| C[C@H](Cc1ccc(-c2ccc3cnn(-c4ccccn4)c3c2)cc1)C(=O)O | < 4.00 |
| Cc1nn(-c2ccccn2)c2cc(-c3ccc(CCCC(=O)O)cc3)ccc12 | 5.68 |
| Cc1nn(-c2ccccn2)c2cc(-c3ccc([C@H]4C[C@@H]4C(=O)O)cc3)ccc12 (racemic) | < 4.00 |
| Cc1nn(-c2ccccn2)c2cc(-c3ccc(CC(C)(C)C(=O)O)cc3)ccc12 | < 4.00 |

The recorded pEC50 with Free fatty acid receptor 1 (Mus musculus, UniProt Q76JU9) for `Cc1ccc(-n2nc(C)c3cnc(-c4ccc([C@H]5C[C@@H]5C(=O)O)cc4)cc32)cc1` was < 4.00

The recorded pEC50 with Free fatty acid receptor 1 (Mus musculus, UniProt Q76JU9) for `COc1nn(-c2ccccn2)c2cc(-c3ccc([C@H]4C[C@@H]4C(=O)O)cc3)cc(F)c12` was < 4.00

----------
measurementTarget: Adenosine receptor A2a (Homo sapiens)
Sequence (P29274 whole entry): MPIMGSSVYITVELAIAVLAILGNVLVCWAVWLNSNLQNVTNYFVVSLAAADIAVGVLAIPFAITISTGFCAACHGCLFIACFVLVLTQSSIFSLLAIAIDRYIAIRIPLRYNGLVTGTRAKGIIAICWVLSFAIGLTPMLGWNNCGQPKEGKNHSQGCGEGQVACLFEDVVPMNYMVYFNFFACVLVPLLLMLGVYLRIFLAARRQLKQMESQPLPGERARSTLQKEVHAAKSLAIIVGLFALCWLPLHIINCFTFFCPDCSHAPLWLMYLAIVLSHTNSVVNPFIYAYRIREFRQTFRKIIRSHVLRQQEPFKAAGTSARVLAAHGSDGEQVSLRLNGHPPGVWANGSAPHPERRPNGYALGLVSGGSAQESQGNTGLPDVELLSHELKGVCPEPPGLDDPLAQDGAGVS
measuredParameter: pKi
Hey, just a heads up that pKi is the negative log base 10 of the concentration in molar.

Documented pKi of `Cc1ccc(-n2nc(C)c3cnc(-c4ccc([C@H]5C[C@@H]5C(=O)O)cc4F)cc32)nc1` : 5.77

----------
runDescription: Apparent permeability across apical to basolateral side in human Caco2 cells
assaySetup: Caco-2
measuredParameter: Papp A→B (×10⁻⁶ cm/s)

| querySmiles | unitSpec | Papp A→B |
| --- | --- | --- |
| COc1nn(-c2ccccn2)c2cc(-c3ccc([C@H]4C[C@@H]4C(=O)O)cc3)ccc12 | ×10⁻⁶ cm/s | 31 |

1 = COc1nn(-c2ccccn2)c2cc(-c3ccc([C@H]4C[C@@H]4C(=O)O)cc3)cc(F)c12
2 = Cc1ccc(-n2nc(C)c3cnc(-c4ccc([C@H]5C[C@@H]5C(=O)O)cc4F)cc32)nc1
Prompt line: In terms of reported Papp A→B, does 1 or 2 have the smaller number? Identify your pick by its label.
Response line: 1
(1: 29 ×10⁻⁶ cm/s, 2: 76 ×10⁻⁶ cm/s)

----------
measurementTarget: Free fatty acid receptor 1 (Mus musculus, UniProt Q76JU9)
runDescription: Agonist activity at mouse GPR40 expressed in HEK293 cells assessed as increase in intracellular calcium level after 5 mins by FLUO-4-AM dye-based FLIPR assay
pEC50: −log10 of the molar value.
measuredParameter: pEC50

Before answering, review these 5 worked examples.
| compound | measurementTarget | assayResult |
| --- | --- | --- |
| O=C(O)CCc1ccc(-c2ccc3c(OCc4ccccc4)nn(-c4ccccn4)c3c2)cc1 | Free fatty acid receptor 1 (Mus musculus, UniProt Q76JU9) | 5.89 |
| COc1nn(-c2ccccn2)c2cc(-c3ccc(CCC(=O)O)cc3)ccc12 | Free fatty acid receptor 1 (Mus musculus, UniProt Q76JU9) | 5.59 |
| N#Cc1nn(-c2ccccn2)c2cc(-c3ccc(CCC(=O)O)cc3)ccc12 | Free fatty acid receptor 1 (Mus musculus, UniProt Q76JU9) | 5.70 |
| Cc1nn(-c2ccccn2)c2cc(-c3ccc([C@H]4C[C@H]4C(=O)O)cc3)ccc12 (racemic) | Free fatty acid receptor 1 (Mus musculus, UniProt Q76JU9) | 4.72 |
| Cc1nn(-c2ccccn2)c2cc(-c3ccc(CCC(=O)O)cc3)ccc12 | Free fatty acid receptor 1 (Mus musculus, UniProt Q76JU9) | 5.85 |

a = O=C(O)CCc1ccc(-c2ccc3cnn(-c4ccccn4)c3c2)cc1
b = Cc1nn(-c2ccccn2)c2cc(-c3ccc(C(C)CC(=O)O)cc3)ncc12 (stereo unspecified)
Prompt line: Hi there! Just curious which has the higher pEC50 between a and b . Identify your pick by its label.
Response line: a
(a: 5.35, b: 4.21)

----------
runDescription: Oral bioavailability in mouse at 5 mg/kg after 24 hrs
Format: ADME, organism-based
assaySetup: in vivo
measuredParameter: bioavailability (%)

| querySmiles | bioavailability, % |
| --- | --- |
| COc1nn(-c2ccccn2)c2cc(-c3ccc([C@H]4C[C@@H]4C(=O)O)cc3)ccc12 | 126 |
| Cc1ccc(-n2nc(C)c3ccc(-c4ccc([C@H]5C[C@@H]5C(=O)O)cc4)cc32)cc1 | 136 |

A = Cc1ccc(-n2nc(C)c3cnc(-c4ccc([C@H]5C[C@@H]5C(=O)O)cc4F)cc32)nc1
B = COc1nn(-c2ccc(C)cc2)c2cc(-c3ccc([C@H]4C[C@@H]4C(=O)O)cc3)cc(F)c12
Prompt line: In terms of reported bioavailability, does A or B have the smaller number? Identify your pick by its label.
Response line: B
(B: 19%, A: 131%)

----------
runDescription: Clearance in mouse at 1 mg/kg, iv after 24 hrs
Assay type: ADME, organism-based
assaySetup: in vivo
measuredParameter: clearance (mL/min/kg)
Give just the number in mL/min/kg; leave the unit off.

Documented clearance of `Cc1ccc(-n2nc(C)c3cnc(-c4ccc([C@H]5C[C@@H]5C(=O)O)cc4F)cc32)nc1` : 13
